Target: DNA-dependent protein kinase catalytic subunit (Homo sapiens, UniProt P78527)
Test: Inhibition of human DNA-PK by luciferase-luciferin-coupled chemiluminescence assay
EXPERIMENTAL READOUT: IC50 (µM)
// return numeric value only (unit: µM, not printed)

Q: Form field - read-out: IC50; system: DNA-dependent protein kinase catalytic subunit (Homo sapiens, UniProt P78527); submitted item: COc1ccc(Cl)c(Nc2nc3ccccc3nc2NS(=O)(=O)c2cccc(NC(=O)C(C)(C)N)c2)c1 [PILARALISIB]
Ans: 4.8

====

Target: Phosphatidylinositol 3-kinase catalytic subunit type 3 (Homo sapiens, UniProt Q8NEB9)
Sequence (Q8NEB9 whole entry): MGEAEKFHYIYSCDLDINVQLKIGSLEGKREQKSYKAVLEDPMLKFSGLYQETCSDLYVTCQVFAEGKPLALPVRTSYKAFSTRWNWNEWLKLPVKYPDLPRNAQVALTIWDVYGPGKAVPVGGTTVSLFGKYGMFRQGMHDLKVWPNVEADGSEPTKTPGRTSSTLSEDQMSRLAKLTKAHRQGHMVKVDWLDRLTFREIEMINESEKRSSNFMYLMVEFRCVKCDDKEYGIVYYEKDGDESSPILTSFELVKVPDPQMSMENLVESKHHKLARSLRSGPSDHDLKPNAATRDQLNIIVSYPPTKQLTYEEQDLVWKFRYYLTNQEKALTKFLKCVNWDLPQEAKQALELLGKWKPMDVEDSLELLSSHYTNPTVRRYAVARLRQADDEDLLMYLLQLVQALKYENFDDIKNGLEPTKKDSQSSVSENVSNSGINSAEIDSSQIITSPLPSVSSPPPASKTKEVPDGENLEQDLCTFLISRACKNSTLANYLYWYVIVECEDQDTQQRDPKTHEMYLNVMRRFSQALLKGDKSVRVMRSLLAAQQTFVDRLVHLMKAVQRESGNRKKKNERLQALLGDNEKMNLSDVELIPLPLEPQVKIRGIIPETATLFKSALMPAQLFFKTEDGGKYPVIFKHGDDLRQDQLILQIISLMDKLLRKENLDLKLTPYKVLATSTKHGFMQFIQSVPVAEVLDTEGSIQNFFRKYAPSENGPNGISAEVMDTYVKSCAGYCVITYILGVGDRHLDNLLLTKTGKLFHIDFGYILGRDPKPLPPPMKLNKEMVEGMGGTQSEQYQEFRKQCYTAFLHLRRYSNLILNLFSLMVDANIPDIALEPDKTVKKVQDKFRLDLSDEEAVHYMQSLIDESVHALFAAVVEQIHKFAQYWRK
Experiment: Inhibition of N-terminal tagged full-length human VPS34 by luciferase-luciferin-coupled chemiluminescence assay
EXPERIMENTAL READOUT: IC50 (µM)
Please respond with the number in µM and leave the unit unwritten.

Q: Checklist item: IC50 tested on Phosphatidylinositol 3-kinase catalytic subunit type 3 (Homo sapiens, UniProt Q8NEB9), entry `COc1ccc(Cl)c(Nc2nc3ccccc3nc2NS(=O)(=O)c2cccc(NC(=O)C(C)(C)N)c2)c1` , value?
Ans: 7

====

Target: Phosphatidylinositol 4-phosphate 3-kinase C2 domain-containing subunit alpha (Homo sapiens, UniProt O00443)
Sequence (O00443 whole entry, the tested form may be a part): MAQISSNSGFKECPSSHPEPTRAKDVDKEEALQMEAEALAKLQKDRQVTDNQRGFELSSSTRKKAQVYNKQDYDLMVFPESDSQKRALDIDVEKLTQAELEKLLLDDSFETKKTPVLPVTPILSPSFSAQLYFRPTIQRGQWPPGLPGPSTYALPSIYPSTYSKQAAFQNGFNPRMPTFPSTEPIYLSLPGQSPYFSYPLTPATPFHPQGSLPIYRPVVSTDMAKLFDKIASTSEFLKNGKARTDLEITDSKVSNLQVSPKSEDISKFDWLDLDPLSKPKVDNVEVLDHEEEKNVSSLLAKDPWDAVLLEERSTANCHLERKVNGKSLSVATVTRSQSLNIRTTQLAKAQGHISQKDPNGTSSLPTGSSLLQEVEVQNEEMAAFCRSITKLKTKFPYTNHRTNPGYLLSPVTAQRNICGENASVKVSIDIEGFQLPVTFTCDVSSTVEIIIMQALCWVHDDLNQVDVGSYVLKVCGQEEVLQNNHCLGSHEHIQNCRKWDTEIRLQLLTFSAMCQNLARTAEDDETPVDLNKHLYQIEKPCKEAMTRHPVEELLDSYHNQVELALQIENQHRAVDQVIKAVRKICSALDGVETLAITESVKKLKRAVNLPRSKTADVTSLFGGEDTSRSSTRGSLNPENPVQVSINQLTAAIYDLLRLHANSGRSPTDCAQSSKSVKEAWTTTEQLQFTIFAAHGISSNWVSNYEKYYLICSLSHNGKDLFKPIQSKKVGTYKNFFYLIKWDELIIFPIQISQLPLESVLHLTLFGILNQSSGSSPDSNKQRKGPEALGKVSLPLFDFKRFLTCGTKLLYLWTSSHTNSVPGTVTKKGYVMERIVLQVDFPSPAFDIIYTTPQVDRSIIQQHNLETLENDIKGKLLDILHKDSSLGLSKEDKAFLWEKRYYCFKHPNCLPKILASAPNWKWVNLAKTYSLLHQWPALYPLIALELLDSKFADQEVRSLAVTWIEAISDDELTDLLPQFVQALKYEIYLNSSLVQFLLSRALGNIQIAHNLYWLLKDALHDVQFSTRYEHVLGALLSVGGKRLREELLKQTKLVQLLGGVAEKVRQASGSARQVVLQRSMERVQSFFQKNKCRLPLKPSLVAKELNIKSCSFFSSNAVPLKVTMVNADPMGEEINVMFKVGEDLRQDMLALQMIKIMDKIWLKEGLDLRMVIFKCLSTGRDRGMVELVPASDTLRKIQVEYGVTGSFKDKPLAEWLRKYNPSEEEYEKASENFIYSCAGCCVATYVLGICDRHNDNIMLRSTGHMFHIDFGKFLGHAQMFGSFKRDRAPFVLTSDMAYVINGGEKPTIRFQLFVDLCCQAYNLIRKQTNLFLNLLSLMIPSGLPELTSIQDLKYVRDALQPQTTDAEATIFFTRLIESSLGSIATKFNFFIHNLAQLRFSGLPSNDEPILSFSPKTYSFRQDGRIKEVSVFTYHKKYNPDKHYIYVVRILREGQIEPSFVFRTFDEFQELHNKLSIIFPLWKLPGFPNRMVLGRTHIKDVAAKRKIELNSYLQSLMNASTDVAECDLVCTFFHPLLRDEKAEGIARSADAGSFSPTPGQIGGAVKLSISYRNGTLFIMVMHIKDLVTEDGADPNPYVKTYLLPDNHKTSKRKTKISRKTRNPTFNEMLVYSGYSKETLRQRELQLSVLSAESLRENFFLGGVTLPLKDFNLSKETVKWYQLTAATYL
Experiment: Inhibition of PI3KC2alpha (unknown origin) expressed in HEK293 cells using phosphatidylinositol and gamma-32P-ATP incubated for 20 mins by TLC assay or high-throughput membrane capture assay
Format: cell-based
EXPERIMENTAL READOUT: pIC50
Just so you know, pIC50 here is -log10 of the concentration in molar units; reply with that number alone.

Q: Given the entry `O=C1NC(=S)S/C1=C\c1ccc2c(c1)N(Cc1ccc(F)c(Cl)c1)C(=O)CO2` , report its measured pIC50.
Ans: 6.85

====

Molecular target: Phosphatidylinositol 3-kinase catalytic subunit type 3 (Homo sapiens, UniProt Q8NEB9)
Experiment: Inhibition of full length human recombinant VPS34 (unknown origin) using phosphatidylinositol and gamma-32P-ATP incubated for 20 mins by TLC assay or high-throughput membrane capture assay
Listed here are molecules together with their documented pIC50.
Notebook: values listed as pIC50 are -log10 of the concentration (mol/L).

Known results for molecules:
CC(=O)Nc1nc(C)c(-c2ccc(Cl)c(S(=O)(=O)NCCO)c2)s1 ... 6.49
COc1ccc2c(c1OC)N=C(NC(=O)c1cccnc1)N1CCN=C21 ... 6.08

Q: Look up pIC50 for this molecule: `O=C1NC(=S)S/C1=C\c1ccc2c(c1)N(Cc1ccc(F)c(Cl)c1)C(=O)CO2`
Ans: 5.00

====

pIC50 for assorted compounds
Target: Phosphatidylinositol 4-phosphate 3-kinase C2 domain-containing subunit alpha (Homo sapiens)
Assay: Inhibition of PI3KC2alpha (unknown origin)
pIC50: −log10 of the molar value.

# count of solved cases: 2
C[C@@H]1COCCN1c1cc(=O)n2c(n1)N(Cc1cncc(Cl)c1)[C@H](C(F)(F)F)CC2 ... < 5.00
CC(C)(O)CNc1ncc(-c2ccnc(Nc3ccnc(Cl)c3)n2)c(CC2CC2)n1 ... < 5.00

Pending compound:
Q: Value lookup for pIC50; key = `CS(=O)(=O)N1CCN(Cc2cc3nc(-c4cccc5[nH]ncc45)nc(N4CCOCC4)c3s2)CC1`
Ans: < 5.00

====

Biological target: Phosphatidylinositol 4-phosphate 3-kinase C2 domain-containing subunit beta (Homo sapiens)
Sequence (O00750 whole entry, the tested form may be a part): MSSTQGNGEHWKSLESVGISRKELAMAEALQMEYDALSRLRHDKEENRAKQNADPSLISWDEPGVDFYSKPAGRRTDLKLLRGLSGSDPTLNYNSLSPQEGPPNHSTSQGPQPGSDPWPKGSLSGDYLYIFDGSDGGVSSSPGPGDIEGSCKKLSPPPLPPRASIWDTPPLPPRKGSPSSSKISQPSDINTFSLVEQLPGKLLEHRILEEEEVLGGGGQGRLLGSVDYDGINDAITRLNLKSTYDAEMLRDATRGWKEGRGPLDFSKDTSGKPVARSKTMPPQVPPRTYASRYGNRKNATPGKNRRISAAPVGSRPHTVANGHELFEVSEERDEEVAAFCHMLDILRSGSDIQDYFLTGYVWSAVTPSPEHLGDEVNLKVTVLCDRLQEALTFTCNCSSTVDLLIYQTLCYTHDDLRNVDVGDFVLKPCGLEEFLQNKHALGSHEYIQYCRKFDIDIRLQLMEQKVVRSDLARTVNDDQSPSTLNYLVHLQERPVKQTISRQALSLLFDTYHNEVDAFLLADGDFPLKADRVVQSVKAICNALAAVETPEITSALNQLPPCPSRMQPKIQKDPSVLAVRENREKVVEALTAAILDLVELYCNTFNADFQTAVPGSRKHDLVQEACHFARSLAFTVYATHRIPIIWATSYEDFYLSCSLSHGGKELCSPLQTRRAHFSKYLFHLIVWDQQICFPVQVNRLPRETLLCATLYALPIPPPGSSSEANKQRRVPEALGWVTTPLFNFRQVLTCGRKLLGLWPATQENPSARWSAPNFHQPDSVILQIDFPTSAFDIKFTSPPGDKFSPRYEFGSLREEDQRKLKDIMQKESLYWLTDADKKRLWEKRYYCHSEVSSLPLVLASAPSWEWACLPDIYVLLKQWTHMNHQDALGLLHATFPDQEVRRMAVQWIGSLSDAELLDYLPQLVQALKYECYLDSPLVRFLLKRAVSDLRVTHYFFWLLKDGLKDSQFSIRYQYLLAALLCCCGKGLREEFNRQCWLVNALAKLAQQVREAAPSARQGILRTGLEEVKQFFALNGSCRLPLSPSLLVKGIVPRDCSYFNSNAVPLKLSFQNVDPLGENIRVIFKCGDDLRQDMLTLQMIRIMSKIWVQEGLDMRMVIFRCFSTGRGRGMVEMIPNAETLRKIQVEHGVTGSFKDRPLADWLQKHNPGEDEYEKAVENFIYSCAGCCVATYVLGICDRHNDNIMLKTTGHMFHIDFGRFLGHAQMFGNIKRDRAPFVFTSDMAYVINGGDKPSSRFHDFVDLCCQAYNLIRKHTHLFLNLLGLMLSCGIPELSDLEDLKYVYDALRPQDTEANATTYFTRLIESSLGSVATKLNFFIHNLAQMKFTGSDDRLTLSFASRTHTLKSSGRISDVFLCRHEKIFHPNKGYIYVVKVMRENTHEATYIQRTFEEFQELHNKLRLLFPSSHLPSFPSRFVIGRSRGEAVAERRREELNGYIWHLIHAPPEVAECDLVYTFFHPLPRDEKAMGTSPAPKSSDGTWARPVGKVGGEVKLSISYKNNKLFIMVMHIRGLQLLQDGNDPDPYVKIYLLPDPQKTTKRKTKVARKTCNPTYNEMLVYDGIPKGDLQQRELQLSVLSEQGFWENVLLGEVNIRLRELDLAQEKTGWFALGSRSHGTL
Assay: Inhibition of PI3KC2beta (unknown origin)
pIC50: −log10 of the molar value.
Catalogue of compounds with associated pIC50

CC(C)(O)CNc1ncc(-c2ccnc(Nc3ccnc(Cl)c3)n2)c(CC2CC2)n1 ... < 5.00

Okay, now this compound:
Q: So what does the record say about pIC50 for `C[C@@H]1COCCN1c1cc(=O)n2c(n1)N(Cc1cncc(Cl)c1)[C@H](C(F)(F)F)CC2` ?
Ans: < 5.00

====

Biological target: DNA-dependent protein kinase catalytic subunit (Homo sapiens)
Experiment: Inhibition of DNA-PK (unknown origin)
EXPERIMENTAL READOUT: pIC50
The read-out pIC50 is expressed as -log10 of concentration in moles per litre.

Q: Consider the compound `O=C1NC(=S)S/C1=C\c1ccc2c(c1)N(Cc1ccc(F)c(Cl)c1)C(=O)CO2` and give its measured pIC50.
Ans: 5.82

====

Molecular target: Phosphatidylinositol 4-phosphate 3-kinase C2 domain-containing subunit beta (Homo sapiens)
Assay: Inhibition of PI3KC2beta (unknown origin) expressed in HEK293 cells using phosphatidylinositol and gamma-32P-ATP incubated for 20 mins by TLC assay or high-throughput membrane capture assay
Type: cell-based
Below, each entry is listed alongside its reported pIC50.
Units for pIC50: none; it is -log10 of a concentration expressed in mol/L.

CC(=O)Nc1nc(C)c(-c2ccc(Cl)c(S(=O)(=O)NCCO)c2)s1 ... 4.85

Let us examine a further case.
Q: What value of measured pIC50 is listed for `O=C1NC(=S)S/C1=C\c1ccc2c(c1)N(Cc1ccc(F)c(Cl)c1)C(=O)CO2` ?
Ans: 6.43
